Tested on: SF-295
EXPERIMENTAL_DETAILS: NCI tumour cell line growth inhibition, 48 h
Activity calls are given as the source filed them. No stated cut-off is given here; in the data, active = GI50 up to about 1.1 µM and inactive = higher.
Would you mind telling me the reported GI50 of each entry?

Query: Form entry - test system: SF-295; read-out: GI50; compound: `CNn1c(-c2ccc(C)cc2)n[nH]c1=O`
Result: > 100 µM (inactive)

Query: Checklist item: GI50 tested on SF-295, entry `CCc1n[nH]c(=O)n1CCCCCCCCCCCCn1c(CC)n[nH]c1=O` , value?
Result: 25.1 µM (inactive)

Query: Form field: GI50 recorded for `Cc1cc(N2CCOCC2)nc2ccc(Cc3ccc4nc(N5CCOCC5)cc(C)c4c3)cc12` with SF-295 (enter value)
Result: 78.7 µM (inactive)

Query: Lab note: need GI50 with SF-295 for entry CC(C)(C)c1cc(C(O)(C(F)(F)F)C(F)(F)F)c2c(c1)C(C(F)(F)F)(C(F)(F)F)OC(C(C)(C)C)N2 (centres undefined) , please look it up.
Result: 2.63 µM (inactive)

Batch request: GI50 per item, same order as input.
1. CC(=O)Nc1ccc(C2SCc3nc4ccccc4n32)cc1 (centres undefined)
2. O=C1NC(=O)[C@@H](OCC2CCCCC2)[C@@H]2OCC3OC(C(O)C3O)C12 (some centres undefined)
3. CC[C@]1(Cc2ccc(OC)c(OC)c2)C=[N+]([O-])O[C@H](OC2CCCCC2c2ccccc2)[C@@H]1OC(C)=O (some centres undefined)
4. COC(=O)C1=CN(C2CCCCC2)C2(c3ccccc3)c3ccccc3C(=O)OC(=O)C12 (centres undefined)
5. CC(=O)O[C@@]12CO[C@@H]1CC(O)[C@@]1(C)C(=O)[C@H](O)C3=C(C)C(O)C[C@@](O)(C(OC(=O)c4ccccc4)C12)C3(C)C (some centres undefined)
6. CC(NNC(=O)c1ccc[n+]([BH2-]C#N)c1)c1ccccc1 (centres undefined)
7. O=C(O)Cc1cccc2c1Oc1ccccc1S2
8. COc1cc2[nH]c3c(c2cc1OC)CCN[C@]31CC[C@]2(CC3c4c(cc(OC)c(O)c42)CCN3C)C[C@H]1OC (some centres undefined)

Result:
["87.9 µM (inactive)", "> 100 µM (inactive)", "37.9 µM (inactive)", "> 100 µM (inactive)", "5.32 µM (inactive)", "> 100 µM (inactive)", "> 100 µM (inactive)", "20.5 µM (inactive)"]

Could I get GI50 for every one of these entries?
1. COC(=O)c1ccc(/N=N/N(C)COc2ccc([N+](=O)[O-])cc2)cc1
2. COc1cc2c(cc1C)NC(=O)/C2=C/c1c(Cl)[nH]c2ccccc12
3. COc1ccc(N2C(=O)C(=O)N(c3ccc(/N=N\c4ccccc4)cc3)C2=S)cc1

Result:
["> 77.4 µM (inactive)", "1.77 µM (inactive)", "18.7 µM (inactive)"]

Please go through the list and note GI50 for each compound.
1. CCOC(=O)C(Cc1ccccc1)NC(=O)c1ccc(/N=N/N(C)C)cc1 (centres undefined)
2. CCC(=O)Nc1ccc(NCC(=O)Nc2ccc(Cl)cc2)cc1
3. C=C(C)C1CC2=C(O1)C(=O)c1cccc(O)c1C2=O (centres undefined)
4. O=C(O)c1ccc([C@@H]2C(=O)N(O)[C@@H]3C=CC[C@@H]32)cc1

Result:
1: > 100 µM (inactive); 2: 14.4 µM (inactive); 3: 1.36 µM (inactive); 4: > 100 µM (inactive)

From: ChEMBL document CHEMBL1201862
